Origin of values: patent US7928126B2

Structures can show the parent of a compound that is named as a salt.
Please consider the recorded Ki for aurora 2 kinase (Homo sapiens, UniProt O14965) in what follows.
Outcome Measure: Ki (nM)

In the examples that follow, each entry is paired with its recorded Ki.
Return reported Ki. Input compound: Cc1cc(Nc2cc(C)c(C#N)c(NCCOc3ccccn3)n2)n[nH]1 [Example 7, dihydrochloride]
6

Return reported Ki. Input compound: Cc1cc(Nc2cc(C)c(C#N)c(NCCOc3ccccc3F)n2)n[nH]1 [Example 13, hydrochloride]
2

Return reported Ki. Input compound: Cc1cc(Nc2ccc(C#N)c(NCCOc3cccc(F)c3)n2)n[nH]1 [Example 15]
2

Return reported Ki. Input compound: Cc1ccc(OCCNc2nc(Nc3cc(C)[nH]n3)ccc2C#N)cn1 [Example 27, dihydrochloride]
3

[I] Cc1cc(Nc2cc(C)c(C#N)c(NCCOc3ccc(F)c(Cl)c3)n2)n[nH]1 [Example 16]
[II] Cc1cc(Nc2cc(C)c(C#N)c(NCCOc3cc(F)cc(F)c3)n2)n[nH]1 [Example 20, hydrochloride]
[III] Cc1cc(Nc2cc(C(F)(F)F)c(C#N)c(NCCOc3ccccc3)n2)n[nH]1 [Example 3]
[IV] Cc1cc(Nc2ccc(C#N)c(NCCOc3ccccc3F)n2)n[nH]1 [Example 19, hydrochloride]
Arrange items by their Ki values in increasing order. Answer by writing out the labels in the requested order.
IV, II, I, III
(IV: 1 nM, II: 2 nM, I: 3 nM, III: 15 nM)

---

# Assay Target: Porcine brain tubulin protein (Sus scrofa, UniProt P02550+P02554)
# Construct: 3.3 mg/ml Porcine brain tubulin protein: Cytoskeleton; purchased Cytoskeleton; host or cells: porcine brain (tissue-derived)
# Sequence (P02550 whole entry): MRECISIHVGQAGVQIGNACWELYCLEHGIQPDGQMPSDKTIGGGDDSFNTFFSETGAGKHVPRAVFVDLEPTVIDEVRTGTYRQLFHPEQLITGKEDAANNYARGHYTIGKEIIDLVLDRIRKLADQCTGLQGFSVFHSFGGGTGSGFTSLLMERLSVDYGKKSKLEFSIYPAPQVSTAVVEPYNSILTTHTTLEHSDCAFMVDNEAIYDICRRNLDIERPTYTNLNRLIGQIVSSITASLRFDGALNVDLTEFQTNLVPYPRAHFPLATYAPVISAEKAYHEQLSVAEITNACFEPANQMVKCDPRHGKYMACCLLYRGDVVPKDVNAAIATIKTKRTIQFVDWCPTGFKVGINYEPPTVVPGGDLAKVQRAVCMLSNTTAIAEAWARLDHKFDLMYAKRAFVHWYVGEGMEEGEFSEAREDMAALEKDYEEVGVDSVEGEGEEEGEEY
# Sequence (P02554 whole entry): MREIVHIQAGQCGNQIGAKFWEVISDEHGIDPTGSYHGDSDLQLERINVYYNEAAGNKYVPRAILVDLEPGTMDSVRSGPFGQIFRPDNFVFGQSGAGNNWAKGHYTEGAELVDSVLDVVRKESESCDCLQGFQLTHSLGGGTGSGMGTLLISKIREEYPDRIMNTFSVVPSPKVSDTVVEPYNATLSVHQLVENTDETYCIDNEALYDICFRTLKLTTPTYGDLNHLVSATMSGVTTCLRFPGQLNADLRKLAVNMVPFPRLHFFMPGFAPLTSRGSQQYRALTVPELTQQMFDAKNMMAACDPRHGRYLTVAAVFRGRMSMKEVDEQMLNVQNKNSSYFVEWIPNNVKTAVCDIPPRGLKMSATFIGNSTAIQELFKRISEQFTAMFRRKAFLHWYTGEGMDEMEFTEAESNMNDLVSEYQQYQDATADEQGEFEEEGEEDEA
# Protocol Notes: Tubulin polymerization assay (turbidity at 405 nm)
# Type: biochemical
# Test Settings: 10 μM compound, maximum polymerization rate, 37° C.; read-out: inhibitory rate (%)
Structures can show the parent of a compound that is named as a salt.
Outcome Measure: inhibition at 10 µM (%)

In the examples that follow, each entry is paired with its recorded inhibition at 10 µM.
Return reported inhibition at 10 µM. Input compound: Cc1cc(Nc2cc(C)c(C#N)c(NCCOc3cccc(F)c3)n2)n[nH]1 [Example 9, hydrochloride]
86

Return reported inhibition at 10 µM. Input compound: COc1ccc(-c2cc(Nc3cc(C)[nH]n3)nc(NCCOc3ccccc3Cl)c2C#N)cc1 [Example 26, hydrochloride]
48

Return reported inhibition at 10 µM. Input compound: "Cc1cc(Nc2ccc(C#N)c(NCCOc3ccc(OC(F)(F)F)cc3)n2)n[nH]1"
34

Return reported inhibition at 10 µM. Input compound: Cc1cc(Nc2cc(C)c(C#N)c(NCCOc3ccccc3Cl)n2)n[nH]1 [Example 24, hydrochloride]
73

[1] Cc1cc(Nc2cc(C)c(C#N)c(NCCOc3cccnc3C)n2)n[nH]1 [Example 22, dihydrochloride]
[2] Cc1cc(Nc2cc(C)c(C#N)c(NCCOc3ccc(F)cc3)n2)n[nH]1
Which gives the smaller inhibition at 10 µM number: 1 or 2 ? Lab note: record the label of whichever item you select.
2
(2: 44%, 1: 79%)

---

# System: human colon cancer cell line HCT-116
# Protocol Notes: Cancer cell growth inhibition (WST-8), HCT-116
# Type: cell-based
# Test Settings: HCT-116, 72 h, HCT116, 3 days, read-out: Cell proliferation suppressive activity value IC50
Counter-ions that a name gives are not always drawn.
Outcome Measure: IC50 (nM)

Return reported IC50. Input compound: Cc1cc(Nc2cc(C)c(C#N)c(NCCOc3cccnc3C)n2)n[nH]1 [Example 22, dihydrochloride]
4

[I] Cc1cc(Nc2ccc(C#N)c(NCCOc3cccnc3C)n2)n[nH]1 [Example 28, dihydrochloride]
[II] Cc1cc(Nc2cc(C)c(C#N)c(NCCOc3cccc(F)c3)n2)n[nH]1 [Example 9, hydrochloride]
[III] Cc1ccc(OCCNc2nc(Nc3cc(C)[nH]n3)cc(C)c2C#N)cn1
Kindly order the items shown according to IC50, from the highest value down. Answer by writing out the labels in the requested order.
II, III, I
(II: 17 nM, III: 7 nM, I: 3 nM)

---

# Test system: human ovarian cancer cell line SKOV-3
# Protocol Notes: Cancer cell growth inhibition (WST-8), SKOV-3
# Format: cell-based
# Test Settings: SK-OV-3, 72 h, SKOV3, 3 days, read-out: Cell proliferation suppressive activity value IC50
Structures can show the parent of a compound that is named as a salt.
Outcome Measure: IC50 (nM)

[A] Cc1ccc(OCCNc2nc(Nc3cc(C)[nH]n3)cc(C)c2C#N)cn1
[B] Cc1cc(Nc2cc(C)c(C#N)c(NCCOc3cccnc3)n2)n[nH]1 [Example 12, dihydrochloride]
Which gives the smaller IC50 number: A or B ? Lab note: record the label of whichever item you select.
B
(B: 1 nM, A: 3 nM)

---

# Test system: human ovarian cancer cell line SKOV-3
# Protocol Notes: Cancer cell growth inhibition (WST-8), SKOV-3
# Assay type: cell-based
# Test Settings: SK-OV-3, 72 h, SKOV3, 3 days, read-out: Cell proliferation suppressive activity value IC50
Where a name gives a salt, the structure may show the parent alone.
Outcome Measure: IC50 (nM)

Return reported IC50. Input compound: Cc1ccc(OCCNc2nc(Nc3cc(C)[nH]n3)cc(C)c2C#N)c(C)n1 [Example 23, dihydrochloride]
8

[a] Cc1cc(Nc2cc(C)c(C#N)c(NCCOc3ccccc3)n2)n[nH]1
[b] Cc1cc(Nc2cc(C)c(C#N)c(NCCOc3cccnc3C)n2)n[nH]1 [Example 22, dihydrochloride]
Quick check, higher IC50 between a and b ? Lab note: record the label of whichever item you select.
a
(a: 10 nM, b: 4 nM)

---

# Assay Target: aurora 2 kinase (Homo sapiens, UniProt O14965)
# Construct: The amplified gene encoding aurora 2 kinase was introduced into Escherichia coli expression vector pET32a; made in house; host or cells: Escherichia coli BL21R (Novagen), vector pET32a
# Sequence (O14965 whole entry): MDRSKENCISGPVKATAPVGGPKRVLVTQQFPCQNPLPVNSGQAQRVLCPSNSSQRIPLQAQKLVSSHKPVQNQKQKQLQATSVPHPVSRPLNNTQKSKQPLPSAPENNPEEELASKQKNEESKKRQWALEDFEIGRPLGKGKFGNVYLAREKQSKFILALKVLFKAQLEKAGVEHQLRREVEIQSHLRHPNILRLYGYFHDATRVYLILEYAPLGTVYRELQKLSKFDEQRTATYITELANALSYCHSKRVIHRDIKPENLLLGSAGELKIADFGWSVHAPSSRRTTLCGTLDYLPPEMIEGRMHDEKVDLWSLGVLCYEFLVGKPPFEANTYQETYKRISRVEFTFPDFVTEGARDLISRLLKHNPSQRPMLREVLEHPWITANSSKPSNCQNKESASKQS
# Protocol Notes: Aurora 2 kinase assay (32P-ATP, peptide substrate LRRASLG)
# Type: biochemical
# Test Settings: room temperature 60 min
pKi: −log10 of the molar value. Structures can show the parent of a compound that is named as a salt.
Outcome Measure: pKi

Return reported pKi. Input compound: Cc1ccc(OCCNc2nc(Nc3cc(C)[nH]n3)cc(C)c2C#N)c(C)n1 [Example 23, dihydrochloride]
8.00

Return reported pKi. Input compound: Cc1cc(Nc2cc(C)c(C#N)c(NCCOc3ccccc3Cl)n2)n[nH]1 [Example 24, hydrochloride]
9.00

Return reported pKi. Input compound: Cc1cc(Nc2cc(C)c(C#N)c(NCCOc3cccnc3C)n2)n[nH]1 [Example 22, dihydrochloride]
8.40

Return reported pKi. Input compound: Cc1ccc(OCCNc2nc(Nc3cc(C)[nH]n3)cc(C)c2C#N)cn1 [Example 21]
8.70

[P] Cc1cc(Nc2ccc(C#N)c(NCCOc3ccccc3Cl)n2)n[nH]1 [Example 25, hydrochloride]
[Q] Cc1cc(Nc2ccc(C#N)c(NCCOc3cccnc3C)n2)n[nH]1 [Example 28, dihydrochloride]
[R] Cc1cc(Nc2cc(C)c(C#N)c(NCCOc3cccc(F)c3)n2)n[nH]1 [Example 9, hydrochloride]
[S] COc1ccc(OCCNc2nc(Nc3cc(C)[nH]n3)cc(C)c2C#N)cc1 [Example 5, hydrochloride]
[T] Cc1ccc(OCCNc2nc(Nc3cc(C)[nH]n3)ccc2C#N)c(C)n1 [Example 29, dihydrochloride]
Kindly order the items shown according to pKi, from the highest value down. Answer by writing out the labels in the requested order.
R, P, Q, S, T
(R: 9.00, P: 8.70, Q: 8.40, S: 7.59, T: 7.18)

---

# Assay Target: aurora 2 kinase (Homo sapiens)
# Construct: The amplified gene encoding aurora 2 kinase was introduced into Escherichia coli expression vector pET32a; made in house; host or cells: Escherichia coli BL21R (Novagen), vector pET32a
# Protocol Notes: Aurora 2 kinase assay (32P-ATP, peptide substrate LRRASLG)
# Format: biochemical
# Test Settings: room temperature 60 min
Structures can show the parent of a compound that is named as a salt.
Outcome Measure: Ki (nM)

In the examples that follow, each entry is paired with its recorded Ki.
Return reported Ki. Input compound: COc1ccc(-c2cc(Nc3cc(C)[nH]n3)nc(NCCOc3ccccc3)c2C#N)cc1 [Example 4]
15

Return reported Ki. Input compound: Cc1cc(Nc2ccc(C#N)c(NCCOc3cccnc3)n2)n[nH]1 [Example 17]
2

[A] Cc1cc(Nc2cc(C)c(C#N)c(NCCOc3cccnc3)n2)n[nH]1 [Example 12, dihydrochloride]
[B] COc1ccc(-c2cc(Nc3cc(C)[nH]n3)nc(NCCOc3ccccc3Cl)c2C#N)cc1 [Example 26, hydrochloride]
Which gives the smaller Ki number: A or B ? Lab note: record the label of whichever item you select.
A

---

# Assay Target: Porcine brain tubulin protein (Sus scrofa, UniProt P02550+P02554)
# Construct: 3.3 mg/ml Porcine brain tubulin protein: Cytoskeleton; purchased Cytoskeleton; host or cells: porcine brain (tissue-derived)
# Protocol Notes: Tubulin polymerization assay (turbidity at 405 nm)
# Type: biochemical
# Test Settings: 10 μM compound, maximum polymerization rate, 37° C.; read-out: inhibitory rate (%)
Structures can show the parent of a compound that is named as a salt.
Outcome Measure: inhibition at 10 µM (%)

Return reported inhibition at 10 µM. Input compound: Cc1cc(Nc2ccc(C#N)c(NCCOc3ccccc3F)n2)n[nH]1 [Example 19, hydrochloride]
59

Return reported inhibition at 10 µM. Input compound: "Cc1cc(Nc2ccc(C#N)c(NCCOc3cccc(F)c3)n2)n[nH]1"
69

Return reported inhibition at 10 µM. Input compound: "Cc1cc(Nc2cc(C)c(C#N)c(NCCOc3ccccc3)n2)n[nH]1"
69

Return reported inhibition at 10 µM. Input compound: "COc1ccc(-c2cc(Nc3cc(C)[nH]n3)nc(NCCOc3ccccc3)c2C#N)cc1"
63

Return reported inhibition at 10 µM. Input compound: Cc1ccc(OCCNc2nc(Nc3cc(C)[nH]n3)ccc2C#N)cn1 [Example 27, dihydrochloride]
57
